tested on: L1210 leukemia ip in BDF1 mice, survival T/C; assay: NCI In Vivo Anticancer Drug Screen. Data for tumor model L1210 Leukemia (intraperitoneal) in B6D2F1 (BDF1) mice; conditions: endpoint: mean survival time; dose: 400.0 mg/kg/injection; schedule: Q01DX009 (ip); vehicle: Klucel (hydroxypropylcellulose) (HPC); higher = longer survival
Inconclusive results and toxic doses are left out.
Would you kindly list T/C for each of these compounds?

Tell me the measured T/C of `CCCCS(=O)(=O)Cc1ccccc1` , please.
98 % of control

Tell me the measured T/C of `CCN(C(=O)c1ccc(Cl)cc1Cl)c1ccccc1C` , please.
101 % of control

Tell me the measured T/C of `O=C(Nc1ccccc1F)OCCOc1ccc(-c2ccccc2)cc1` , please.
98 % of control

Tell me the measured T/C of `O=C1c2nc3ccccc3nc2C(=O)N1OS(=O)(=O)c1ccccc1` , please.
100 % of control

Tell me the measured T/C of `O=[N+]([O-])c1ccccc1N=N/C(Cc1ccccc1)=N\Nc1ccccc1` , please.
94 % of control

Tell me the measured T/C of `Cc1ccc2c(c1)SN(CN1C(=O)c3ccccc3C1=O)N2` , please.
90 % of control

Tell me the measured T/C of `O=C(/C=C\c1ccc(O)cc1)c1ccccc1` , please.
101 % of control

Tell me the measured T/C of `ON(Cc1ccccc1)Cc1ccccc1` , please.
98 % of control

Tell me the measured T/C of O=C(c1ccccc1)C1C(c2ccccc2)N1CCl (centres undefined) , please.
100 % of control

Tell me the measured T/C of `Nc1ccccc1C(=O)N/N=C/c1ccccc1Cl` , please.
86 % of control

Tell me the measured T/C of `COc1ccccc1NC(=O)Nc1ccccc1OC` , please.
103 % of control

Tell me the measured T/C of `S=C1Nc2ccccc2CS1` , please.
102 % of control

Tell me the measured T/C of `COc1ccc(N=NN(C(C)=O)c2ccccc2)cc1` , please.
96 % of control

Tell me the measured T/C of `O=C(CCCCCCCCC(=O)Nc1ccccc1F)Nc1ccccc1F` , please.
101 % of control

Tell me the measured T/C of `CCCCN(Cc1ccccc1)C(=O)Nc1ccccc1` , please.
100 % of control

Tell me the measured T/C of `Brc1cc(Br)c(/C=C/c2c(Br)cc(Br)cc2Br)c(Br)c1` , please.
105 % of control

Tell me the measured T/C of `Cc1cccc(Cl)c1NC(=O)Oc1ccccc1C(N)=O` , please.
105 % of control

Tell me the measured T/C of `CC(COS(C)(=O)=O)(COS(C)(=O)=O)Cc1ccccc1` , please.
93 % of control

Tell me the measured T/C of `CCCCOc1ccc(OC(=O)Nc2cccc(C(C)=O)c2)cc1` , please.
96 % of control

Tell me the measured T/C of `COc1ccc(CCBr)cc1` , please.
95 % of control

Tell me the measured T/C of `C=CCc1c(C)ccc(C)c1OC` , please.
97 % of control

Tell me the measured T/C of `O=C(Nc1ccc(Br)cc1)Oc1ccccc1C(=O)Nc1ccccc1` , please.
88 % of control

Tell me the measured T/C of `O=C(Cc1ccccc1)Nc1cccc(C(F)(F)F)c1` , please.
98 % of control

Tell me the measured T/C of `Cc1ccc(NC(=O)Oc2cc(C)c(Cl)c(C)c2)cc1` , please.
96 % of control
